Assay: LDH
Assay type: cell-based
Conditions: printed in the EC50 column; effect TC; read-out: TC Tolerated Concentration (LDH)
readoutType: MNTC
Include the unit after the number when you answer.

Quick one: MNTC for "Nc1nc(Cl)c2ncn(CCCCB(O)O)c2n1" ?
100 µM

* * *

Experiment: MTS
Assay type: cell-based
Conditions: printed in the EC50 column; effect TC; read-out: TC Tolerated Concentration (MTS)
readoutType: MNTC (µM)
Numbers only, in µM.

Quick one: MNTC for "Nc1nc(Cl)c2ncn(CCCCB(O)O)c2n1" ?
100

* * *

Tested on: LTB4
Experiment: Monocyte release of LTB4
Type: cell-based
Conditions: Homo sapiens, effect INHIB (Inhibition), zymosan A
readoutType: EC50 (µM)
Answers are plain numbers, in µM.

// fetch LTB4 EC50 for "Nc1nc(Cl)c2ncn(CCCCB(O)O)c2n1"
90.5
